# experimental_target: Cytochrome P450 2C19 (Homo sapiens) (UniProt P33261)
# Sequence (P33261 whole entry, looked up): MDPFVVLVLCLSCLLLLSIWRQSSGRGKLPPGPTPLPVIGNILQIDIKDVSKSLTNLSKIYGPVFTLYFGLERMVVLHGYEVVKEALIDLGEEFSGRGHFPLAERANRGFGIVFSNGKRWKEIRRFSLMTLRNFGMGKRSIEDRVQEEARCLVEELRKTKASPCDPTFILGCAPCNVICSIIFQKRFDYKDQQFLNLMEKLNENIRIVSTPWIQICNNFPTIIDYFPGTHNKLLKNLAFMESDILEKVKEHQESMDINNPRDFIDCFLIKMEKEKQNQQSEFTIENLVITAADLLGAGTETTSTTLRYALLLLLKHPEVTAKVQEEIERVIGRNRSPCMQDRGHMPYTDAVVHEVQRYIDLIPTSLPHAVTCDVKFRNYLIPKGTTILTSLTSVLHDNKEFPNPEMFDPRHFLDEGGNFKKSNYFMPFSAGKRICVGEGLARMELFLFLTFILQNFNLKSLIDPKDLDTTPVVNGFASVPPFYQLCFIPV
# protocol_text: Cytochrome panel assay with activity outcomes
# condition_description: recombinant CYP, pro-luciferin dealkylation, luminescence, p450-cyp2c19; series mostly up to 57.1 µM
# Procedure: The P450 gene superfamily is involved in the metabolism and clearance of xenobiotics. This assay used various human CYP P450 isozymes to measure the dealkylation of various pro-luciferin substrates to luciferin. The luciferin is then measured by luminescence after the addition of a luciferase detection reagent. […] Inhibitors and some substrates limit the production of luciferin, and decrease measured luminescence. […] 8, Detection, 1 sec, ViewLux luminescent read […]
The campaign covered roughly 16,000 compounds. About 5,800 (36%) were called active. Roughly 23% stayed inconclusive and do not appear here. The list shows a part of the results.
value_kind: AC50

The following compounds have reported results that may help.
CN(C)c1ccnc(-c2cccc(NS(C)(=O)=O)c2)n1: inactive
O=C(c1cnccn1)N1CCC2(CCCN(Cc3nccs3)C2)CC1: 15.8 µM (active)
Fc1ccc(SCCc2ccncc2)cc1: 0.447 µM (active)
CCOc1ncccc1C(=O)OCC(=O)Nc1cc(C)ccc1C: 5.01 µM (active)
COc1ccc(-c2nc3cnc(Nc4cccc(OC)c4)nc3n(CCC#N)c2=O)cc1: inactive
COc1ccc(/C=C/C(=O)NCc2cn(C)nc2C)cc1COc1ccc(Br)cc1: 3.98 µM (active)
Cc1ccc(C(=O)N/N=C\c2cccn2C)cn1: inactive
Cc1nc2cnc(N3CCN(C)CC3)nc2n(-c2ccccc2)c1=O: inactive

What value of AC50 has been reported for the following compound? CCC/C=C(\CCC)C(NS(=O)(=O)c1ccc(-c2ccccc2)cc1)c1ccc(C(=O)OC)cc1 (stereo not drawn)
1.26 µM (active)
